Assay system: Sodium/potassium-transporting ATPase
Measurement description: Inhibition of human Na+/K+-ATPase assessed as reduction in inorganic phosphate release from ATP incubated for 15 mins followed by ATP addition measured over 15 mins in presence of Na+/K+ by colorimetric method
Measure name: IC50 (nM)
The reply should be a number in nM, with the unit left off.

Query :: Which IC50 is listed for `C=CCO[C@H]1CC[C@]2(C)[C@H]3C[C@@H](O)[C@@H]4[C@@H]([C@@]5(C)CCCC(C)(C)O5)CC[C@@]4(C)[C@]3(C)CC(=O)[C@H]2C1(C)C` ?
Result :: 1050

Query :: Repeat with `CC1(C)CCC[C@](C)([C@H]2CC[C@]3(C)[C@@H]2[C@H](OCc2ccccc2)C[C@@H]2[C@@]4(C)CCC(=O)C(C)(C)[C@@H]4[C@@H](OCc4ccccc4)C[C@]23C)O1`
Result :: 870

Query :: Also check `CC1(C)CCC[C@](C)([C@H]2CC[C@]3(C)[C@@H]2[C@H](O)C[C@@H]2[C@@](C)(CCC(=O)O)CC(=O)C[C@]23C)O1`
Result :: 540

---

Assay system: Sodium/potassium-transporting ATPase
Measurement description: Inhibition of human Na+/K+-ATPase assessed as reduction in inorganic phosphate release from ATP incubated for 15 mins followed by ATP addition measured over 15 mins in presence of Na+/K+ by colorimetric method
I'd be grateful if you could share measured IC50 for these entries.
Quick reminder: number only, in µM, skip the unit.

Query :: Given the entry `CC1(C)CCC[C@](C)([C@H]2CC[C@]3(C)[C@@H]2C(=O)C[C@@H]2[C@@]4(C)CCC(=O)C(C)(C)[C@@H]4C(=O)C[C@]23C)O1` , what IC50 was observed with Sodium/potassium-transporting ATPase?
Result :: 0.76

Query :: Query `CCO[C@H]1CC[C@]2(C)[C@H]3C[C@@H](O)[C@@H]4[C@@H]([C@@]5(C)CCCC(C)(C)O5)CC[C@@]4(C)[C@]3(C)CC(=O)[C@H]2C1(C)C` next
Result :: 1.14

Query :: How about this compound: `CC1(C)CCC[C@](C)([C@H]2CC[C@]3(C)[C@@H]2[C@H](O)C[C@@H]2[C@@]4(C)CC[C@H](OCc5ccc(OC(F)(F)F)cc5)C(C)(C)[C@@H]4C(=O)C[C@]23C)O1`
Result :: 0.45

---

Assay system: Sodium/potassium-transporting ATPase
Measurement description: Inhibition of human Na+/K+-ATPase assessed as reduction in inorganic phosphate release from ATP incubated for 15 mins followed by ATP addition measured over 15 mins in presence of Na+/K+ by colorimetric method
Measure name: pIC50
In plain terms, pIC50 is the concentration in mol/L turned into minus its base-10 logarithm.

Query :: Which pIC50 reading was recorded for the compound `CC1(C)CCC[C@](C)([C@H]2CC[C@]3(C)[C@@H]2[C@H](O)C[C@@H]2[C@@]4(C)CC[C@H](OCc5ccccc5)C(C)(C)[C@@H]4C(=O)C[C@]23C)O1` ?
Result :: 6.52

Query :: Thanks! And `C=C(C)[C@@H]1C(=O)C[C@]2(C)[C@H](C[C@@H](O)[C@@H]3[C@@H]([C@@]4(C)CCCC(C)(C)O4)CC[C@]32C)[C@@]1(C)CCC(=O)OC` ?
Result :: 5.96

Query :: Query `CC1(C)CCC[C@](C)([C@H]2CC[C@]3(C)[C@@H]2[C@H](O)C[C@@H]2[C@@]4(C)CCC(=O)NC(C)(C)[C@@H]4C(=O)C[C@]23C)O1` next
Result :: 6.39

Query :: Now try `COC(=O)CC[C@]1(C)[C@H]2C[C@@H](O)[C@@H]3[C@@H]([C@@]4(C)CCCC(C)(C)O4)CC[C@@]3(C)[C@]2(C)CC(=O)[C@H]1C(C)(C)O` .
Result :: 6.59

Query :: Can you handle `C=CCO[C@H]1C[C@]2(C)[C@H](C[C@@H](OCC=C)[C@@H]3[C@@H]([C@@]4(C)CCCC(C)(C)O4)CC[C@]32C)[C@@]2(C)CCC(=O)C(C)(C)[C@H]12` next?
Result :: 6.12

Query :: Queued: `CC1(C)CCC[C@](C)([C@H]2CC[C@]3(C)[C@@H]2[C@H](O)C[C@@H]2[C@@]4(C)CC[C@H](Oc5noc(=O)[nH]5)C(C)(C)[C@@H]4C(=O)C[C@]23C)O1`
Result :: 6.02

Query :: Follow-up entry: `CC1(C)CCC[C@](C)([C@H]2CC[C@]3(C)[C@@H]2C(=O)C[C@@H]2[C@@]4(C)CCC(=O)OC(C)(C)[C@@H]4C(=O)C[C@]23C)O1`
Result :: 5.95

Query :: What about this compound? `C=CCO[C@H]1C[C@]2(C)[C@H](C[C@@H](O)[C@@H]3[C@@H]([C@@]4(C)CCCC(C)(C)O4)CC[C@]32C)[C@@]2(C)CCC(=O)C(C)(C)[C@H]12`
Result :: 6.04

Query :: Here is the next compound: `CC1(C)CCC[C@](C)([C@H]2CC[C@]3(C)[C@@H]2[C@H](O)C[C@@H]2[C@@]4(C)Cc5c([nH]c6ccc(OC(F)(F)F)cc56)C(C)(C)[C@@H]4C(=O)C[C@]23C)O1`
Result :: 6.44

Query :: Can you handle `CC1(C)CCC[C@](C)([C@H]2CC[C@]3(C)[C@@H]2[C@H](O)C[C@@H]2[C@@]4(C)CC[C@H](O)C(C)(C)[C@@H]4[C@@H](O)C[C@]23C)O1` next?
Result :: 5.96
